B1: RHOBTB2 (parent)
chain: NQEITKAFHVRRTNRVKECLAKGT

Variants of: B1
protocol: protein stability index of a GFP-peptide fusion (GPS, HEK-293T) (PSI 1-6); higher = more stable;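 note: lentivirally expressed fusions sorted by FACS into six bins by GFP to DsRed ratio, PSI derived from sequencing read proportions per bin multiplied by bin number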
condition.context: c terminus: a fixed tail appended
reported.endpoint: protein stability index
The answer should be a number; do not append a unit.

Query: Sample A7Y — what was its protein stability index?
Reply: 2.29

Query: Sample K6N — what was its protein stability index?
Reply: 3.25

Query: Sample N1I — what was its protein stability index?
Reply: 1.59

Query: Sample G23S — what was its protein stability index?
Reply: 3.11

Query: Sample C19Y — what was its protein stability index?
Reply: 2.33

Query: Sample K22M — what was its protein stability index?
Reply: 2.73

Query: Sample K6D — what was its protein stability index?
Reply: 4

Query: Sample V10W — what was its protein stability index?
Reply: 3.35

Query: Sample A21M — what was its protein stability index?
Reply: 2.23

Query: Sample E3F — what was its protein stability index?
Reply: 2.04

Query: Sample K22I — what was its protein stability index?
Reply: 2.58
